Sourced from the RNAGym collection of RNA variant scans (doi:10.1038/s41586-018-0170-7)

What yeast fitness (ln) was measured for each of the following?
B1: tRNA (parent)
chain: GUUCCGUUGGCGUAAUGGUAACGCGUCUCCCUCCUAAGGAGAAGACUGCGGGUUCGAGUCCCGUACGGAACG

# Variants of: B1
# test: yeast fitness, log relative to wild type (ln ratio); higher = fitter; tRNA-Arg(CCU), competitive growth, 37 C, 1 M NaCl
Answers are plain numbers.

G1A G6U C66U C71U	-0.425
G6U C27U C66A	-0.0293
G1A C46U C66U A69G A70U C71U	-0.353
G1A U2G C27U C66U A69G A70G C71U	-0.416
C27U A43C C46U A70U C71U	-0.093
G6U A43C C46U A69G A70U	-0.236
G1A U2C G6U C27U A43C C46U C66U A69G A70U	-0.472
G1A U2C A43C C46U C66A A70G C71U	-0.0667
U2G G6U C46U A70U	-0.0198
U2C G6U C27U C46U C66U A69G A70G	-0.3

For the 5 variants below, give their yeast fitness (ln) values.
1. G1A U2G G6A A70U C71U
2. G1A U2G G6U C27U C46U A69G A70G
3. G1A G6A A43C A69G C71U
4. G1A U2G G6A C27U C46U A70G
5. U2G C27U A43C C46U C66U A69G

-0.0851
-0.474
-0.335
-0.237
-0.231

For the 5 variants below, give their yeast fitness (ln) values.
1. G6A A43C C46U A69G A70G
2. A43C C66U A69G A70G
3. A43C C46U C66A A70U
4. G1A U2G G6A C46U C66U A70G
5. U2G G6U C66U A69G A70G C71U

1: -0.216; 2: -0.166; 3: -0.0196; 4: -0.11; 5: -0.235
